system: EKVX; experiment: NCI tumour cell line growth inhibition, 48 h
Active and inactive are the calls of the source. No stated cut-off is given here; in the data, active = GI50 up to about 1.1 µM and inactive = higher.
GI50 by entry:
measured property: GI50

> print(dat)
                                   compound  target.or.system  measured.property       value.measured
1  CC(=O)O[C@H]1C[C@H]2[C@@H]([C@H](OC(C)=O)C[C@@H]3CC4(CC[C@@]32C)OOC2(CCCCC2)OO4)[C@@H]2CC[C@H]([C@H](C)CCC(N)=O)[C@@]12C              EKVX               GI50   1.49 µM (inactive)
2                CN(N=O)C(=N)NC(=O)c1ccccc1              EKVX               GI50   61.2 µM (inactive)
3  CCOP(=O)(OCC)/C(C#N)=C\c1ccc(OC(C)=O)cc1              EKVX               GI50  > 100 µM (inactive)
4  Cc1ccccc1Nc1nc(NNC(=O)Cc2ccccc2)nc(NNC(=O)c2ccncc2)n1              EKVX               GI50   > 10 µM (inactive)
5  O=C(CCCN1CCC(Nc2ccccc2)(c2nnnn2C2CCCCC2)CC1)c1ccc(F)cc1              EKVX               GI50    3.3 µM (inactive)
6           COC(=O)c1ccc2n1C1CC3CC(CC2C3)C1              EKVX               GI50  > 100 µM (inactive)
7  O=c1cnn(C2OC(C(O)CO)C(O)C2O)c(=O)[nH]1 (centres undefined)              EKVX               GI50  > 100 µM (inactive)
8  CC(=O)NNc1nc(C)c(C(/C=C/c2cccc([N+](=O)[O-])c2)=N/NC(=S)NN)s1              EKVX               GI50   52.1 µM (inactive)
9  CC(C)N(C(=O)C12C3C4C1C1C4(C#N)C3C12C(=O)O)C(C)C (centres undefined)              EKVX               GI50  > 100 µM (inactive)

----------
test system: UO-31; assay: NCI tumour cell line growth inhibition, 48 h
Activity calls are given as the source filed them. No stated cut-off is given here; in the data, active = GI50 up to about 1.1 µM and inactive = higher. Non-standard residues stand in square brackets, D forms with d. Residues, ends and D or L forms follow the SMILES beside them. *: point of attachment. Ac5c = NC1(C(=O)O)CCCC1; Boc = CC(C)(C)OC(=O)*; tBu = CC(C)(C)*
Outcomes: active, inactive

molecule	answer label
CCOc1cc(-c2nc3ccccn3c2/N=C/c2cc(Br)ccc2O)ccc1O	inactive
Cc1cn(C2CC(CCCO)C(CO)O2)c(=O)[nH]c1=O (stereo not given)	inactive
COC(=O)CCc1ccc2c(c1)CCC2	inactive
O=C1OC(C2Cc3ccc4c(c3C2=O)CCCC4)c2ccccc21 (stereo not given)	inactive
CC(OC(C)(C)C)C(NC(=O)C(CCCCNC(=O)OC(C)(C)C)NC(=O)C(Cc1c[nH]c2ccccc12)NC(=O)C(N)Cc1ccccc1)C(=O)NC(Cc1ccccc1)C(=O)NC1(C(=O)O)CCCC1 (stereo not given) (H-FWK(Boc)T(tBu)F[Ac5c]-OH; configuration not given here)	inactive
COc1ccc(Cc2ccccc2C(=O)O)c2ccccc12	inactive
C=C1C[C@@H]2O[C@H]3[C@H]4[C@@H](C[C@@H](C)[C@@H](OC(C)=O)[C@H]42)[C@@H](C)CO[C@@]3(C)[C@H](OC(=O)CCCCCCC)CC1=O	inactive
COC(=O)C(Cc1cn(C(C)=O)c2ccccc12)P(=O)(OC)OC (stereo not given)	inactive
Cn1c2c(c3c(=O)[nH]ncc31)CCc1ccccc1-2	inactive
O=c1cc[nH]c(=O)[nH]1	inactive
CCOC(=O)N1CCN(c2ccc3c(C)cc(C)nc3n2)CC1	inactive
Oc1cc(Br)cc2cc(Cl)cnc12	inactive
CCN(CC)c1ccc(C2N3CCCCC3[C@@H]3c4[nH]c5ccccc5c4CCN23)cc1 (stereo not given in full)	inactive
COC(=O)c1cnn2c1ccc1ccccc12	inactive
COc1c(CC=C(C)C)c(O)c(C(CC(C)C)c2c(O)c3c(c(C(C)=O)c2O)OC(C(C)(C)O)C3)c(O)c1C(C)=O (stereo not given)	inactive
Cc1c(C(=O)CSc2nc3cc([N+](=O)[O-])ccc3[nH]2)c(=O)n(-c2ccccc2)n1C	inactive
Cn1c2ccccc2c(=NNc2ccc(C(=O)O)cc2)c2ccccc21	inactive
CN1C(=O)c2cccc3c([N+](=O)[O-])ccc(c23)C1=O	inactive
Cc1ccc(C)c(NC(=O)/C(=N\N)C(c2cnc3ccc([N+](=O)[O-])cc3n2)[N+](=O)[O-])c1 (stereo not given)	inactive
O=C(SC1=NCCN1)c1cccc2ccccc12	inactive
CCOC(=O)C(CO)c1nc2c([nH]c1=O)c(=O)n(C)c(=O)n2C (stereo not given)	inactive
O=C(O)CCSC(=O)Nc1ccc(/N=N/c2ccccc2)cc1	inactive
COC(=O)CC(C(C(=O)OC)C(=O)OC)N1C(=O)OC(c2ccccc2)C1c1ccccc1 (stereo not given)	inactive
Cc1cc2c(=Cc3ccc(N(C)C)cc3)c3ccccc3n2[n+]1C	inactive
C[C@]12CC[C@H]3[C@@H](CC[C@]4(O)C[C@@H](O)CC[C@]34C=O)[C@@]1(O)CC[C@@H]2C1=CC(=O)OC1	active
COc1ccc(CCNC(=O)Cc2ccccc2CCO)cc1OC	inactive
O=C(O)C12CCC(CC1=O)C2 (stereo not given)	inactive
COc1ccc2c(c1)C1=NCCN(CCN(C)C)c3ccc([N+](=O)[O-])c(c31)N2	active
CC1=[N+]([O-])C2(CCCC2)N(O)C1(C)C	inactive
COc1ccc(C2(c3ccc(OC)cc3)OC(=O)c3cccc4cccc2c34)cc1	inactive
CC1CN1P1(N2CC2C)=NP(N2CC2C)(N2CC2C)=NP(N2CC2C)(N2CC2C)=N1 (stereo not given)	inactive
COc1cc2c(c(O)c1OC)C(O)C1CCC(=O)N1C2c1cccc2ccccc12 (stereo not given)	inactive
O=C1C2=Cc3ccccc3CCN2c2ccc([N+](=O)[O-])cc21	inactive
COc1ccc2[nH]cc(CN3CCC(CO)(c4ccccc4)CC3)c2c1	inactive
CN1C2CC(=O)CC1[C@H](O)[C@@H]2O	inactive
CCOC(=O)c1c2c(n(-c3ccc(OC)cc3)c1C)C(=O)C(=O)c1ccccc1-2	inactive
Cc1cc(/N=C/c2ccc(Cl)cc2)n(-c2ccccc2)n1	inactive
COc1cc(NCC(C#N)C#N)ccc1/N=N/c1ccc([N+](=O)[O-])cc1	inactive
O=c1cnn(C2OC(C(O)CO)C(O)C2O)c(=O)[nH]1 (stereo not given)	inactive
CN(C)CCNC(=O)c1cc(NC(=O)c2cc(NC(=O)CC/C=C3/[C@@H]4CC[C@H]3N=N4)cn2C)cn1C	inactive
